All figures here come from patent US20240116985A1.

Test target: full-length beta-Catenin (Uniprot ID P35222) (Homo sapiens)
Construct: 10 nM full-length beta-Catenin (Uniprot ID P35222)
Sequence (P35222 whole entry): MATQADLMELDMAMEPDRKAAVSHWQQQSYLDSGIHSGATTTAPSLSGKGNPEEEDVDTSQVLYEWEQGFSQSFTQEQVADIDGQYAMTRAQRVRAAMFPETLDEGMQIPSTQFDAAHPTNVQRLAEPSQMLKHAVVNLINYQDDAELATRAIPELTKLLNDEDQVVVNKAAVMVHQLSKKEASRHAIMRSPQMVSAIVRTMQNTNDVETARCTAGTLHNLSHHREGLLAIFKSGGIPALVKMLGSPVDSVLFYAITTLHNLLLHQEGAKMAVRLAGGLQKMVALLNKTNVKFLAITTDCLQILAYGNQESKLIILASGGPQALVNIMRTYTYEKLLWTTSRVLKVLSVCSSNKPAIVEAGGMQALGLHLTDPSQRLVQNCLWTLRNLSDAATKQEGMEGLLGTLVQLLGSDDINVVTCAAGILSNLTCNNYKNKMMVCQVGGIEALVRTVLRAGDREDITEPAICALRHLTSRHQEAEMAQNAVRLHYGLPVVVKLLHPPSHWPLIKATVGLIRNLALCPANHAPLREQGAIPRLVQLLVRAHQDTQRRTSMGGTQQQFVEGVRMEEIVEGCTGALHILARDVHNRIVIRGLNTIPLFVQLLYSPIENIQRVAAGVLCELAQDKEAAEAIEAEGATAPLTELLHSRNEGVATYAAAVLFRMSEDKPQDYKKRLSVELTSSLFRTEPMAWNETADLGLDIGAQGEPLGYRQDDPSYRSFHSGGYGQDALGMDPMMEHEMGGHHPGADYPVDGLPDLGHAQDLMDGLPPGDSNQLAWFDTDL
Test: Fluorescence polarization IC50 (beta-catenin / 5FAM-TCF4 10-53 competition)
Format: binding
Assay setup: fluorescence polarization; read-out: beta-Catenin FP IC50
Consider the following molecules; for each one, report its IC50.
Respond with the figure and its unit, in that order.

Examples with answers:
Here CC(=O)N1CCC[C@]12CC=CCCCC1(CCCC=CCCCCCC[C@@](C)(C(=O)N[C@@H](Cc3ccsc3)C(=O)N[C@@H](Cc3csc4ccccc34)C(=O)N[C@@H](CCC(N)=O)C(N)=O)NC(=O)[C@H](CC(N)=O)NC(=O)[C@H](Cc3ccccc3)NC(=O)[C@H](C)NC(=O)[C@H](C)NC(=O)[C@H](CN(CC(=O)O)Cc3c(F)c(F)c(F)c(F)c3F)NC(=O)[C@H](CC(=O)O)NC1=O)NC(=O)[C@H](CC(C)(C)C)NC(=O)[C@H](CC(=O)O)NC2=O (stereo partly drawn) was tested on full-length beta-Catenin (Uniprot ID P35222) (Homo sapiens), and its IC50 came to 0.0475 µM

Here CCCCOC(=O)N1CCC[C@]12CC=CCCCC1(CCCC=CCCCOC(=O)N3CC[C@@](C(=O)N[C@@H](Cc4ccccc4Cl)C(=O)N[C@@H](Cc4csc5ccccc45)C(=O)N[C@@H](C)C(N)=O)(C3)NC(=O)[C@H](CC(C)C)NC(=O)[C@H](Cc3ccccc3)NC(=O)[C@H](C)NC(=O)[C@H](C)NC(=O)[C@H](Cc3cccc(C(=O)O)c3)NC(=O)[C@H](CC(=O)O)NC1=O)NC(=O)[C@H](CC(C)(C)C)NC(=O)[C@H](CC(=O)O)NC2=O (stereo partly drawn) was tested on full-length beta-Catenin (Uniprot ID P35222) (Homo sapiens), and its IC50 came to 0.511 µM

For every record below, what is its IC50?
1. CC(=O)N1CCC[C@]12CC=CCCCC1(CCCC=CCCCOC(=O)N3CC[C@@](C(=O)N[C@@H](Cc4ccccc4C(F)(F)F)C(=O)N[C@@H](Cc4csc5ccccc45)C(=O)N[C@@H](C)C(N)=O)(C3)NC(=O)[C@H](CC(C)C)NC(=O)[C@H](Cc3ccccc3)NC(=O)[C@@H](C)NC(=O)[C@H](C)NC(=O)[C@H](Cc3cccc(C(=O)O)c3)NC(=O)[C@H](CC(=O)O)NC1=O)NC(=O)[C@H](CC(C)(C)C)NC(=O)[C@H](CC(=O)O)NC2=O (stereo partly drawn) [I-2099]
2. CC(=O)N1CCC[C@]12CC=CCCCC1(CCCC=CCCCOC(=O)N3CC[C@@](C(=O)N[C@@H](Cc4ccsc4)C(=O)N[C@@H](Cc4csc5ccccc45)C(=O)N[C@@H](CCC(N)=O)C(N)=O)(C3)NC(=O)[C@H](CC(C)C)NC(=O)[C@H](Cc3ccccc3)NC(=O)[C@H](C)NC(=O)[C@H](C)NC(=O)[C@H](CC(=O)O)NC(=O)[C@H](CC(=O)O)NC1=O)NC(=O)[C@H](CC1CCCCC1)NC(=O)[C@H](CC(=O)O)NC2=O (stereo partly drawn)
3. CC(=O)N1CCC[C@]12CC=CCCCC1(CCCC=CCCCOC(=O)N3CC[C@@](C(=O)N[C@@H](Cc4ccccc4)C(=O)N[C@@H](Cc4csc5ccccc45)C(=O)N[C@@H](CCCCN)C(N)=O)(C3)NC(=O)[C@H](CC(C)C)NC(=O)[C@H](Cc3ccccc3)NC(=O)[C@H](C)NC(=O)[C@H](CCCCNC(C)C)NC(=O)[C@H]([C@@H](C)O)NC(=O)[C@H](CC(=O)O)NC1=O)NC(=O)[C@H](C)NC(=O)[C@H](CC(N)=O)NC2=O (stereo partly drawn)
4. CC(=O)N1CCC[C@]12CC=CCCCC1(CCCC=CCCOC(=O)N3CC[C@@](C(=O)N[C@@H](Cc4ccsc4)C(=O)N[C@@H](Cc4csc5ccccc45)C(=O)N[C@@H](CCC(N)=O)C(N)=O)(C3)NC(=O)[C@H](CC(N)=O)NC(=O)[C@H](Cc3ccccc3)NC(=O)[C@H](C)NC(=O)[C@H](C)NC(=O)[C@H]([C@@H](C)O)NC(=O)[C@H](CC(N)=O)NC1=O)NC(=O)[C@H](CC(C)(C)C)NC(=O)[C@H](CC(=O)O)NC2=O (stereo partly drawn) [I-2198]
5. CC(=O)N1CCC[C@]12CC=CCCCC1(CCCC=CCCCOC(=O)N3CC[C@@](C(=O)N[C@@H](Cc4ccsc4)C(=O)N[C@@H](Cc4csc5ccccc45)C(=O)N[C@@H](CC(C)(C)C)C(N)=O)(C3)NC(=O)[C@H](CC(C)C)NC(=O)[C@H](Cc3ccccc3)NC(=O)[C@H](C)NC(=O)C(C)(C)NC(=O)[C@H](Cc3cccc(C(=O)O)c3)NC(=O)[C@H](CC(=O)O)NC1=O)NC(=O)[C@H](CC(C)(C)C)NC(=O)[C@H](CC(=O)O)NC2=O (stereo partly drawn)
6. CC[C@H](C)[C@@H]1NC(=O)[C@H](CC(=O)O)NC(=O)[C@]2(CC=CCCCC3(CCCC=CCCCCCC[C@@](C)(C(=O)N[C@@H](Cc4ccccc4OC)C(=O)N[C@@H](Cc4csc5ccccc45)C(=O)N[C@@H](Cc4c[nH]cn4)C(N)=O)NC(=O)[C@H](CC(N)=O)NC(=O)[C@H](Cc4ccccc4)NC(=O)[C@H](C)NC(=O)[C@H](C)NC(=O)[C@H](CC(=O)O)NC(=O)[C@H](CC(=O)O)NC3=O)NC1=O)CCCN2C(C)=O (stereo partly drawn) [I-553]
7. CC(=O)N1CCC[C@]12CC=CCCCC1(CCCC=CCCCOC(=O)N3CC[C@@](C(=O)N[C@@H](Cc4ccccc4)C(=O)N[C@@H](Cc4csc5ccccc45)C(=O)N[C@@H](CCC(N)=O)C(N)=O)(C3)NC(=O)[C@H](CC(C)C)NC(=O)[C@H](Cc3ccccc3)NC(=O)[C@H](C)NC(=O)[C@H](CCCCNC(C)C)NC(=O)[C@H](Cc3cccc(C(=O)O)c3)NC(=O)[C@H](CC(=O)O)NC1=O)NC(=O)[C@H](CC1CCCCC1)NC(=O)[C@H](CC(N)=O)NC2=O (stereo partly drawn)

Resp:
0.325 µM
0.01 µM
1.66 µM
1.47 µM
0.091 µM
0.061 µM
0.005 µM
